systemTested: Metabotropic glutamate receptor 8 (Rattus norvegicus)
testProtocol: mGluR8 Gi/Go-coupled signaling modulation – cell-based, rat, thallium flux, HTS, primary screen (AID 488969)
assayConditions: HEK293 rat mGluR8, GIRK thallium flux, FluoZin2; at 10 µM; stronger effect = higher value; submaximal glutamate (EC20) added with thallium
Over roughly 110,000 compounds, “z-score” has its median near -0.1; the highest 2% begin near 2. For the sample, the highest values were picked, then their nearest neighbours and some compounds at random.
Measured z-score by item
recordedMetric: z-score

>>> endpointresult("CC(=O)N1CCN=C1SCc1ccc(F)cc1")
0.0688
>>> endpointresult("CC(=O)N1CCN=C1SCc1ccccc1")
-0.898
>>> endpointresult("C=CCN(CC=C)C(=S)Nc1ccccc1")
-0.0866
>>> endpointresult("O=C(N[C@@H](Cc1ccccc1)c1nc2ccccc2[nH]1)c1cc([N+](=O)[O-])ccc1Cl")
-0.361
>>> endpointresult("CC(C)NC(=S)NC(=O)c1ccc(-c2ccccc2)cc1")
0.201
>>> endpointresult("Cc1ccc2c(c1)c1c(n2CC(O)Cn2nc(C)c(Br)c2C)CCCC1 (configuration not stated)")
0.191
>>> endpointresult("COc1ccc(OCCC(=O)OCC(=O)NCc2ccccc2)cc1")
-0.332
>>> endpointresult("COc1ccc(C)cc1NC(=O)Nc1ccccc1")
11.5
>>> endpointresult("CN(Cc1ccccc1)C(=S)NC(=O)C1CCCCC1")
1.47
>>> endpointresult("CN(Cc1ccccc1)C(=S)NC(=O)c1ccc(-c2ccccc2)cc1")
4.13
>>> endpointresult("C=CCN(CC=C)C(=S)NC(=O)c1ccc([N+](=O)[O-])cc1")
4.84
>>> endpointresult("CC(=O)N1CCN=C1SCc1ccc(Br)cc1")
2.58

* * *

systemTested: Metabotropic glutamate receptor 8 (Rattus norvegicus) (UniProt P70579)
Sequence (P70579 whole entry, looked up): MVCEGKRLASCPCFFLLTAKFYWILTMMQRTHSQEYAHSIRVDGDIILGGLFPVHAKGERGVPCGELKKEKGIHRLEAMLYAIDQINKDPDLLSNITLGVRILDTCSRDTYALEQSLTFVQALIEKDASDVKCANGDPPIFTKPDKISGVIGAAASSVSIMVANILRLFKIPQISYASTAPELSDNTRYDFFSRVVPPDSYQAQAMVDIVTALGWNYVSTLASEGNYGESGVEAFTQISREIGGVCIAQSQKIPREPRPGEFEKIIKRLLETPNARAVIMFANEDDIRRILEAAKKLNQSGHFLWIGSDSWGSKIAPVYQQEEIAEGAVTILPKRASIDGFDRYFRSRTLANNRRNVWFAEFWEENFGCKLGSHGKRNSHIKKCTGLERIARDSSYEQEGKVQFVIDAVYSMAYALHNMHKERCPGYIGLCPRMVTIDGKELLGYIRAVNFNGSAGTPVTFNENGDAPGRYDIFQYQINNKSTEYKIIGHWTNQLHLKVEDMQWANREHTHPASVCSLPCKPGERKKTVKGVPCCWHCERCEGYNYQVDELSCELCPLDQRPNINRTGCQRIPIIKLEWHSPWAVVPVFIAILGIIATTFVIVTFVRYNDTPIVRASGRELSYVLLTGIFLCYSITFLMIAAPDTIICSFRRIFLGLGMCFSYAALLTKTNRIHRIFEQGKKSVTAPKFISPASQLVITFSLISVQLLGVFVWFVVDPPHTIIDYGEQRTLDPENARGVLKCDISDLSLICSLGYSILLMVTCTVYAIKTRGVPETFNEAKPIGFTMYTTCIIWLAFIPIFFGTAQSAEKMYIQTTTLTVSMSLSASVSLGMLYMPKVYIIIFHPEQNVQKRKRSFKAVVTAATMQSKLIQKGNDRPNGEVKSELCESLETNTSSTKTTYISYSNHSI
testProtocol: mGluR8 Gi/Go-coupled signaling modulation – cell-based, rat, thallium flux, HTS, primary screen (AID 488969)
assayConditions: HEK293 rat mGluR8, GIRK (G protein-gated inwardly rectifying potassium channel) thallium flux, FluoZin2; at 10 µM; stronger effect = higher value; submaximal glutamate (EC20) added with thallium
In all, about 110,000 compounds were measured (“z-score”: median about -0.1, highest 2% from about 2 on). What follows is part of a selection rich in the highest values, with near analogues and random picks from the rest.
Grouping by measured z-score is done with the following cut points: LOW = under 0.03, MID = from 0.03 up to 0.8, HIGH = 0.8 and over

>>> cat("CCOC(=O)Cc1csc(NC(=S)NC(=O)c2ccc(C)cc2)n1")
"HIGH"
>>> cat("CCOC(=O)Cc1csc(NC(=S)NC(=O)c2ccc(Cl)cc2)n1")
"HIGH"
>>> cat("CCOC(=O)Cc1csc(NC(=O)c2ccc(OC)c(OC)c2)n1")
"LOW"
>>> cat("Cc1cc(=O)[nH]c(-n2nc(C)c(Oc3ccccc3O)c2C)n1")
"LOW"
>>> cat("CCOC(=O)Cc1csc(NC(=O)c2ccc(NC(C)=O)cc2)n1")
"MID"
>>> cat("NC(=S)N/N=C/c1ccc(C(F)(F)F)cc1")
"MID"
>>> cat("CCOC(=O)Cc1csc(NC(=S)NC(=O)c2ccccc2)n1")
"HIGH"
>>> cat("O=C(NC(C(=O)O)c1ccccc1)c1ccccc1 (stereo unspecified)")
"MID"
>>> cat("O=CN1CCN(C(C(=O)NC2CCCC2)c2ccc(Cl)cc2)CC1 (stereo unspecified)")
"LOW"
>>> cat("CCOC(=O)Cc1csc(NC(=O)c2ccc(Cl)nc2)n1")
"LOW"

Numbers sourced from PubChem BioAssay AID488969.
